# Test system: P. berghei ANKA
# Test Method Notes: IC50 of infection of Huh7 cells by P. berghei ANKA, 18S rRNA qRT-PCR
# Format: cell-based
# Experimental Setup: Plasmodium berghei, Huh-7, P. berghei ANKA infection of Huh7 cells, 24 hours, read-out: IC50 (inhibition of infection)
Measured Attribute: pIC50
Reminder that pIC50 means the negative base-10 logarithm of the concentration expressed in mol/L.

The recorded pIC50 for entry COc1cc(NC(C)CCCN)c2ncccc2c1 (stereo not shown) [primaquine] equals 4.89
